Record form. Attribute: melting point. Fill in for each entry.

Problem: What does the record list as melting point for O=C1C2=C(C(=O)c3ccccc31)C(C=Cc1ccccc1[N+](=O)[O-])c1sc(=O)[nH]c1S2 (stereo not shown) [Compound 3.2] ?
Result: 330 to 332 °C

Problem: Do the same for O=C1C2=C(C(=O)c3ccccc31)C(C=Cc1ccccc1)c1sc(=O)[nH]c1S2 (stereo not shown) [Compound 3.1] please
Result: 338 to 340 °C

Problem: Do the same for O=C1C2=C(C(=O)c3ccccc31)C1(CCCC1)c1sc(=O)[nH]c1S2 [Compound 3.5] please
Result: 231 to 233 °C

Problem: Do the same for CC1(C)C2=C(Sc3[nH]c(=O)sc31)C(=O)c1ccccc1C2=O [Compound 3.4] please
Result: 230 to 232 °C
